Where these numbers come from: ChEMBL document CHEMBL5506072

- assay explanation: Oral bioavailability in CD-1 mouse at 30 mg/kg by LC-MS/MS analysis
- Format: ADME, organism-based
- assay conditions: in vivo
Parameter: bioavailability. Scope: all listed entries.
Form entry: value (%) — number only.

C=CC(=O)N1[C@@H]2CC[C@H]1C[C@@H](n1nc(-c3ccc(Oc4ccc5c(c4)ncn5C)c(C)c3)c3c(C)ncnc31)C2 = 112

// bioavailability value for C=CC(=O)N1[C@@H]2CC[C@H]1C[C@@H](n1nc(-c3cc(F)c(Oc4ccc5c(c4)ncn5C)c(Cl)c3)c3c(C)ncnc31)C2 : 133

###

// hepatic extraction ratio at 20 min, 1 µM lookup, one value per entry
- assay explanation: Metabolic stability in mouse liver microsomes assessed as extraction ratio at 1 uM incubated for 20 mins by LC-MS/MS analysis
- Assay type: ADME, Microsome
- assay conditions: read-out: ERH
Quick one: just the number, no unit, thanks!

CCC(=O)N1CCC[C@@H](n2nc(-c3ccc(Oc4ccc5c(c4)ncn5C)c(C)c3)c3c(C)ncnc32)C1 = 0.9

For this compound ( COC/C=C/C(=O)N1CCC[C@@H](n2nc(-c3ccc(Oc4ccc5c(c4)ncn5C)c(C)c3)c3c(C)ncnc32)C1 ), measured hepatic extraction ratio at 20 min, 1 µM is 0.86

###

The compounds listed here are annotated with their solubility thermodynamic at 24 h.
- assay explanation: Thermodynamic solubility in FaSSIF at pH 6.5 at about 1 mg/ml incubated for 24 hrs by shake flask method
- Type: ADME
- assay conditions: read-out: Therm_solubility
Note: unit µg/mL is implicit; provide only the numeric part.

Use the examples below as a reference point.
C=CC(=O)N1[C@@H]2CC[C@H]1C[C@@H](n1nc(-c3cc(C)c(Oc4ccc5c(c4)ncn5C)c(F)c3)c3c(C)ncnc31)C2 = 18
C=CC(=O)N1[C@@H]2CC[C@H]1C[C@@H](n1nc(-c3cc(F)c(Oc4ccc5c(c4)ncn5C)c(Cl)c3)c3c(C)ncnc31)C2 = 36

For this compound ( C=CC(=O)N1[C@@H]2CC[C@H]1C[C@@H](n1nc(-c3ccc(Oc4ccc5c(c4)ncn5C)c(C)c3)c3c(C)ncnc31)C2 ), measured solubility thermodynamic at 24 h is 12

###

- assay explanation: Tmax in CD-1 mouse at 30 mg/kg, po by LC-MS/MS analysis
- Assay type: ADME, organism-based
- assay conditions: in vivo
Recorded Tmax for the following compounds
Note: unit h is implicit; provide only the numeric part.

C=CC(=O)N1[C@@H]2CC[C@H]1C[C@@H](n1nc(-c3ccc(Oc4ccc5c(c4)ncn5C)c(C)c3)c3c(C)ncnc31)C2 = 1

Shift focus to the following entry.
Entry C=CC(=O)N1[C@@H]2CC[C@H]1C[C@@H](n1nc(-c3cc(F)c(Oc4ccc5c(c4)ncn5C)c(Cl)c3)c3c(C)ncnc31)C2 — recorded Tmax = 1

###

- system tested: Receptor tyrosine-protein kinase erbB-2 (Homo sapiens)
- Sequence (P04626 whole entry): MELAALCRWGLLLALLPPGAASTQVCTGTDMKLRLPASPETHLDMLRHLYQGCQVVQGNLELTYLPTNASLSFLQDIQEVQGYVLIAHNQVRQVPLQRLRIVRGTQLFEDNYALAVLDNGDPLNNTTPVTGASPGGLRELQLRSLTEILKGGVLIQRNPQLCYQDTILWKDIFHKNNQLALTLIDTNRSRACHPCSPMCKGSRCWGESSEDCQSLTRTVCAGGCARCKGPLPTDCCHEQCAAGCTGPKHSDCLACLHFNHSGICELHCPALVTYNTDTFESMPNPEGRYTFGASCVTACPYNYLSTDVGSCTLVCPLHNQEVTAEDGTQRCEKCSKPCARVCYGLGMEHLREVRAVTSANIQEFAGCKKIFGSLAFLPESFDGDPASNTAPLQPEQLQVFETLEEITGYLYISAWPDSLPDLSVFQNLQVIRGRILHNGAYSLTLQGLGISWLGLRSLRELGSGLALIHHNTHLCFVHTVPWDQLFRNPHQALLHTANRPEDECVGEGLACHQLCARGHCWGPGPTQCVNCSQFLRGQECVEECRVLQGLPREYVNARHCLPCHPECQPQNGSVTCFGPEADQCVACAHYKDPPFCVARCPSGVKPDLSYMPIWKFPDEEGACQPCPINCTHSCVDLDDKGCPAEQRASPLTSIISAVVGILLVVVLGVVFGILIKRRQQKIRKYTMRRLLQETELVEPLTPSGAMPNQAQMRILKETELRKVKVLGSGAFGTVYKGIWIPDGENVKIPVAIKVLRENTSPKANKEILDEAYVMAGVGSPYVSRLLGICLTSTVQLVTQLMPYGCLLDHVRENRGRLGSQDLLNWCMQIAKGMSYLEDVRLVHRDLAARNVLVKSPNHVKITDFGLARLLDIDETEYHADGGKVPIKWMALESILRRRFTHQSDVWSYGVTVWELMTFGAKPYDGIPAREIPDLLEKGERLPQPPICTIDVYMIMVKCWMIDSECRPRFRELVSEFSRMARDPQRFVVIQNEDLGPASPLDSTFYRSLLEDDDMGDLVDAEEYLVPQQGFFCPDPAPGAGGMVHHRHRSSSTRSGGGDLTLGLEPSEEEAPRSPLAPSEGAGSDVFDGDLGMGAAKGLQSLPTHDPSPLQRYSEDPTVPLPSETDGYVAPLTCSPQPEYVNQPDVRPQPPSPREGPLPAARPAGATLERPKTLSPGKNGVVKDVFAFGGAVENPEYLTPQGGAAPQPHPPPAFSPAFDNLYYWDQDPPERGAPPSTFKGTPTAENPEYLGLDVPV
- assay explanation: Inhibition of wild-type HER2 phosphorylation in human BT-474 cells incubated for 1 hr by In-cell Western assay
Catalogue of IC50 values

Examples with answers:
Cc1cc(Nc2ncnc3ccc(NC4=NC(C)(C)CO4)cc23)ccc1Oc1ccn2ncnc2c1 = 0.007 µM
COC/C=C/C(=O)N1CCC[C@@H](n2nc(-c3ccc(Oc4ccc5c(c4)ncn5C)c(C)c3)c3c(C)ncnc32)C1 = > 5 µM
C=CC(=O)N1CCC[C@@H](n2nc(-c3ccc(Oc4ccc5c(c4)ncn5C)c(C)c3)c3c(CC)ncnc32)C1 = > 5 µM

What the record says about CCC(=O)N1CCC[C@@H](n2nc(-c3ccc(Oc4ccc5c(c4)ncn5C)c(C)c3)c3c(C)ncnc32)C1 : IC50 is > 5 µM
